Reference source: PubChem BioAssay AID1919013

# System: LG0703-F498-PDC complex spheroid growth
# Measurement Notes: Anticancer human tumor LG0703-F498-PDC patient-derived lung adenocarcinoma cell line growth inhibition [AhR]
# Run Parameters: curve of first compound; second compound 0.316 µM
Observable: IC50 (nM)
Lab book: enter the figure in nM, no units written.

Input: Need IC50 of CC1(C)CCC(CN2CCN(c3ccc(C(=O)NS(=O)(=O)c4ccc(NCC5CCOCC5)c([N+](=O)[O-])c4)c(Oc4cnc5[nH]ccc5c4)c3)CC2)=C(c2ccc(Cl)cc2)C1 + Cc1cncc(-c2nc(NCCc3c[nH]c4ccccc34)c3ncn(C(C)C)c3n2)c1 , thanks.
Output: 7100

Input: Need IC50 of Nc1ccccc1NC(=O)c1ccc(CNC(=O)OCc2cccnc2)cc1 + Cc1cncc(-c2nc(NCCc3c[nH]c4ccccc34)c3ncn(C(C)C)c3n2)c1 , thanks.
Output: 563

Input: Need IC50 of COc1ccc([C@@H](O)c2cc(-c3ncnc4cc(N5CCOCC5)ccc34)c(F)cc2Cl)nn1 + Cc1cncc(-c2nc(NCCc3c[nH]c4ccccc34)c3ncn(C(C)C)c3n2)c1 , thanks.
Output: 4810

Input: Need IC50 of CC1COCCN1c1cc(-c2ccnn2C)c2ccnc(-c3ccn[nH]3)c2n1 (stereo unspecified) + Cc1ccccc1N=Nc1ccc(NC(=O)c2ccnn2C)c(C)c1 , thanks.
Output: 678

---

# System: LG0703-F498-PDC complex spheroid growth
# Measurement Notes: Anticancer human tumor LG0703-F498-PDC cell line growth inhibition [AhR];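 note: luminescence taken as a proxy for viable cell amount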;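 for viability, T/C: percent of DMSO vehicle control where 100% means growth equal to vehicle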
# Run Parameters: second compound 0.1 µM; first compound 0.0316 µM; stronger effect = lower value
For each entry below, report its viability, T/C value.
Lab book: enter the figure in %, no units written.

Input: Need viability, T/C of COc1cccc2c1C(=O)c1c(O)c3c(c(O)c1C2=O)CC(O)(C(=O)CO)CC3OC1CC(N)C(O)C(C)O1 (configuration not stated) + Cc1cncc(-c2nc(NCCc3c[nH]c4ccccc34)c3ncn(C(C)C)c3n2)c1 , thanks.
Output: 76.6

Input: Need viability, T/C of NS(=O)(=O)OCC1CC(n2ccc3c(NC4CCc5ccccc54)ncnc32)CC1O (configuration not stated) + CC(CO)NC(=O)c1cc(-c2ccc(Cl)cc2)nn(-c2cnn(C)c2)c1=O , thanks.
Output: 94.1

Input: Need viability, T/C of CC1COCCN1c1cc(C2(S(C)(=N)=O)CC2)nc(-c2ccnc3[nH]ccc23)n1 (configuration not stated) + Cc1cncc(-c2nc(NCCc3c[nH]c4ccccc34)c3ncn(C(C)C)c3n2)c1 , thanks.
Output: 107

Input: Need viability, T/C of Nc1ncn(C2CC(O)C(CO)O2)c(=O)n1 (configuration not stated) + Cc1ccccc1N=Nc1ccc(NC(=O)c2ccnn2C)c(C)c1 , thanks.
Output: 94.8

Input: Need viability, T/C of CC[C@@]1(O)C(=O)OCc2c1cc1n(c2=O)Cc2cc3c(CN(C)C)c(O)ccc3nc2-1 + CC(CO)NC(=O)c1cc(-c2ccc(Cl)cc2)nn(-c2cnn(C)c2)c1=O , thanks.
Output: 83.2

Input: Need viability, T/C of CC1COCCN1c1cc(-c2ccnn2C)c2ccnc(-c3ccn[nH]3)c2n1 (configuration not stated) + Cc1ccccc1N=Nc1ccc(NC(=O)c2ccnn2C)c(C)c1 , thanks.
Output: 82.4

Input: Need viability, T/C of NS(=O)(=O)OCC1CC(n2ccc3c(NC4CCc5ccccc54)ncnc32)CC1O (configuration not stated) + Cc1cncc(-c2nc(NCCc3c[nH]c4ccccc34)c3ncn(C(C)C)c3n2)c1 , thanks.
Output: 105

Input: Need viability, T/C of COc1cc(Nc2ncc3c(n2)-c2ccc(Cl)cc2C(c2c(F)cccc2OC)=NC3)ccc1C(=O)O + CC(CO)NC(=O)c1cc(-c2ccc(Cl)cc2)nn(-c2cnn(C)c2)c1=O , thanks.
Output: 87.2

Input: Need viability, T/C of CC1COCCN1c1cc(-c2ccnn2C)c2ccnc(-c3ccn[nH]3)c2n1 (configuration not stated) + Cc1cncc(-c2nc(NCCc3c[nH]c4ccccc34)c3ncn(C(C)C)c3n2)c1 , thanks.
Output: 112

Input: Need viability, T/C of COc1ccc([C@@H](O)c2cc(-c3ncnc4cc(N5CCOCC5)ccc34)c(F)cc2Cl)nn1 + Cc1cncc(-c2nc(NCCc3c[nH]c4ccccc34)c3ncn(C(C)C)c3n2)c1 , thanks.
Output: 87.8

Input: Need viability, T/C of Nc1ccccc1NC(=O)c1ccc(CNC(=O)OCc2cccnc2)cc1 + Cc1ccccc1N=Nc1ccc(NC(=O)c2ccnn2C)c(C)c1 , thanks.
Output: 89.8

Input: Need viability, T/C of CC(C)c1c(-c2ccccc2)nc2c(C#N)c[nH]n2c1=O + Cc1ccccc1N=Nc1ccc(NC(=O)c2ccnn2C)c(C)c1 , thanks.
Output: 95.3
